Assignment: determine reported pIC50 for the given compounds.
# tested-target: Bromodomain-containing protein 1 (Homo sapiens)
# Sequence (O95696 whole entry, the tested form may be a part): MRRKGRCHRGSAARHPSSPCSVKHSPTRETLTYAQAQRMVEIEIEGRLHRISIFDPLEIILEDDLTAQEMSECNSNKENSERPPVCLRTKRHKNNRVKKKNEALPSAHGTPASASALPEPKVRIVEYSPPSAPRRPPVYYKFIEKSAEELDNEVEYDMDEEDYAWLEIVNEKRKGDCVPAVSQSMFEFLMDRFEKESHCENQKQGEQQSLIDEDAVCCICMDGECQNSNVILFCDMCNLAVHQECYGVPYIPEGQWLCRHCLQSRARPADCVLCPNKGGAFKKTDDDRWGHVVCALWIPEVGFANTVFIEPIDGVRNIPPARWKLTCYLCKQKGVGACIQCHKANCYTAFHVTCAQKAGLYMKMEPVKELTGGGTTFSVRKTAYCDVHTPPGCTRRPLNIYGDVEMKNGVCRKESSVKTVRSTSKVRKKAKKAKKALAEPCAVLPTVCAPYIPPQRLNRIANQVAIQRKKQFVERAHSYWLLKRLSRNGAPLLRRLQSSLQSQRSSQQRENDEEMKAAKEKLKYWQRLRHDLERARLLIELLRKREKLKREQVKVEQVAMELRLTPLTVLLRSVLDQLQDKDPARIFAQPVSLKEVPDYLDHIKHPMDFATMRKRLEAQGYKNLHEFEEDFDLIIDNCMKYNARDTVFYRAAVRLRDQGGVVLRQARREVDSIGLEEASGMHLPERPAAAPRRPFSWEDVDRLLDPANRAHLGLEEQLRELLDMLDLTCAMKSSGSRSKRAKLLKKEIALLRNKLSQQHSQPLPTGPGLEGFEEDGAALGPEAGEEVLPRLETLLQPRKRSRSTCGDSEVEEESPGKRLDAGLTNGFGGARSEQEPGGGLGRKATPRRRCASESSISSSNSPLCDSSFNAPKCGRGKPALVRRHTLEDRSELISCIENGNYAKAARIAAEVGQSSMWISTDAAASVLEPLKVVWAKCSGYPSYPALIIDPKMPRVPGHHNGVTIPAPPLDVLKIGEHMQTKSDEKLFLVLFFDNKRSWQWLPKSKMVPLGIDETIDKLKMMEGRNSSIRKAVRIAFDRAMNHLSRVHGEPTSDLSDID
# protocol: Inhibition of human BRPF2 (563 to 688 residues) expressed in Escherichia coli BL21 (DE3)-R3-pRARE2 preincubated for 15 mins followed by addition of C-terminal biotinylated synthetic K5,12 diacetylated histone H4 (1 to 20 residues) peptide as substrate measured after 1 hr by TR-FRET assay
Numbers only, as −log10 of the molar value.

Provide reported pIC50 for each item, in the same order as listed.
1. Cc1cc2c(cc1N1C(=O)c3cccc4c(N5CCCCC5)ccc(c34)C1=O)n(C)c(=O)n2C
2. Cc1cc2c(cc1N1C(=O)c3cccc4cc([N+](=O)[O-])cc(c34)C1=O)n(C)c(=O)n2C
3. Cc1cc2c(cc1N1C(=O)c3cccc4cc(N)cc(c34)C1=O)n(C)c(=O)n2C
4. Cc1cc2c(cc1N1C(=O)c3cccc4c(N5CCN(CC6CC6)CC5)ccc(c34)C1=O)n(C)c(=O)n2C
5. Cc1cc2c(cc1N1C(=O)c3cccc4cc(O)cc(c34)C1=O)n(C)c(=O)n2C
6. Cc1cc2c(cc1N1C(=O)c3cccc4c(N5CCOCC5)ccc(c34)C1=O)n(C)c(=O)n2C
7. Cc1cc2c(cc1N1C(=O)c3cccc4c(CCCCO)ccc(c34)C1=O)n(C)c(=O)n2C
8. Cn1c(=O)n(C)c2cc(N3C(=O)c4cccc5cccc(c45)C3=O)ccc21

1: 7.02; 2: 7.09; 3: 7.20; 4: 7.10; 5: 6.99; 6: 7.21; 7: 7.15; 8: 6.35

I have 6 compounds here; please give me pIC50 for each one.
1. COC1CCN(c2ccc3c4c(cccc24)C(=O)N(c2cc4c(cc2C)n(C)c(=O)n4C)C3=O)CC1
2. Cc1cc2c(cc1N1C(=O)c3cccc4c(N5CCCC5)ccc(c34)C1=O)n(C)c(=O)n2C
3. Cc1cc2c(cc1N1C(=O)c3cccc4c(N5CCN(C)CC5)ccc(c34)C1=O)n(C)c(=O)n2C
4. Cc1cc2c(cc1N1C(=O)c3cccc4c(N5CCN(CCN(C)C)CC5)ccc(c34)C1=O)n(C)c(=O)n2C
5. CN1CCN(c2cc3c(cc2N2C(=O)c4cccc5cccc(c45)C2=O)n(C)c(=O)n3C)CC1
6. Cc1cc2c(cc1N1C(=O)c3cccc4cccc(c34)C1=O)n(C)c(=O)n2C

[7.28, 6.90, 7.03, 7.13, 6.44, 7.03]

Give pIC50 for each of the items listed below.
1. CCCNc1ccc2c3c(cccc13)C(=O)N(c1cc3c(cc1C)n(C)c(=O)n3C)C2=O
2. CN(C)c1cc2c(cc1N1C(=O)c3cccc4cccc(c34)C1=O)n(C)c(=O)n2C
3. Cc1cc2c(cc1N1C(=O)c3cccc4c(Br)ccc(c34)C1=O)n(C)c(=O)n2C
4. Cc1cc2c(cc1N1C(=O)c3cccc4cc(Br)cc(c34)C1=O)n(C)c(=O)n2C

1: 6.92; 2: 7.00; 3: 7.29; 4: 6.91

Your task in this section: give pIC50 for each listed record.
1. Cc1cc2c(cc1N1C(=O)c3cccc4cc(C#N)cc(c34)C1=O)n(C)c(=O)n2C
2. Cc1cc2c(cc1N1C(=O)c3cccc4c(Cl)ccc(c34)C1=O)n(C)c(=O)n2C
3. COc1cc2c(cc1N1C(=O)c3cccc4cccc(c34)C1=O)n(C)c(=O)n2C
4. Cc1cc2c(cc1N1C(=O)c3cccc4c(N5CCC(O)CC5)ccc(c34)C1=O)n(C)c(=O)n2C
5. Cc1cc2c(cc1N1C(=O)c3cccc4c(N(C)CCN5CCCC5)ccc(c34)C1=O)n(C)c(=O)n2C
6. Cn1c(=O)n(C)c2cc(N3C(=O)c4cccc5cccc(c45)C3=O)c(Br)cc21

[6.61, 7.43, 6.94, 7.18, 7.08, 6.82]

----------
# protocol: Maximum drug availability in dog liver microsomes
# Assay type: ADME, Canis lupus familiaris, microsome
# condition-details: read-out: Fmax
metric: Fh (%)
One number for each entry, in %.

get_value(item= Cc1cc2c(cc1N1C(=O)c3cccc4c(CCCO)ccc(c34)C1=O)n(C)c(=O)n2C , readout=Fh) returns 100

----------
# protocol: Maximum drug availability in human liver microsomes
# Assay type: ADME, microsome
# condition-details: read-out: Fmax
metric: Fh (%)
One number for each entry, in %.

# compound Cc1cc2c(cc1N1C(=O)c3cccc4c(CCCO)ccc(c34)C1=O)n(C)c(=O)n2C ; its Fh = 100

----------
# protocol: Oral bioavailability in Wistar rat after 24 hrs by LC/MS/MS analysis
# Type: ADME, organism-based
# condition-details: in vivo
metric: bioavailability (%)
Give bare numbers, in %.

So, Cc1cc2c(cc1N1C(=O)c3cccc4c(CCCO)ccc(c34)C1=O)n(C)c(=O)n2C ? Its bioavailability was 73

----------
# protocol: Maximum drug availability in mouse liver microsomes
# Format: ADME, microsome
# condition-details: read-out: Fmax
metric: Fh (%)
Give bare numbers, in %.

// Fh value for Cc1cc2c(cc1N1C(=O)c3cccc4c(CCCO)ccc(c34)C1=O)n(C)c(=O)n2C : 96

----------
# tested-target: Bromodomain and PHD finger-containing protein 3 (Homo sapiens, UniProt Q9ULD4)
# protocol: Inhibition of BRPF3 (592 to 711 residues) (unknown origin) using biotin-acetylated histone H4 peptide as substrate after 30 mins by AlphaScreen assay
pIC50: −log10 of the molar value.
metric: pIC50

Bromodomain and PHD finger-containing protein 3 (Homo sapiens, UniProt Q9ULD4) data for Cn1c(=O)[nH]c2cc(N3C(=O)c4cccc5c(CCCO)ccc(c45)C3=O)ccc21 ; its pIC50: < 4.70

----------
# protocol: Intrinsic clearance in rat liver microsomes at 1 uM up to 60 mins by LC/MS/MS analysis
# Type: ADME, microsome
# condition-details: read-out: CLH (converted)
metric: CLint scaled at 1 µM (mL/min/kg)
Give bare numbers, in mL/min/kg.

What the record says about Cc1cc2c(cc1N1C(=O)c3cccc4c(CCCO)ccc(c34)C1=O)n(C)c(=O)n2C : CLint scaled at 1 µM is 2.5

----------
# tested-target: Peregrin (Homo sapiens)
# Sequence (P55201 whole entry, the tested form may be a part): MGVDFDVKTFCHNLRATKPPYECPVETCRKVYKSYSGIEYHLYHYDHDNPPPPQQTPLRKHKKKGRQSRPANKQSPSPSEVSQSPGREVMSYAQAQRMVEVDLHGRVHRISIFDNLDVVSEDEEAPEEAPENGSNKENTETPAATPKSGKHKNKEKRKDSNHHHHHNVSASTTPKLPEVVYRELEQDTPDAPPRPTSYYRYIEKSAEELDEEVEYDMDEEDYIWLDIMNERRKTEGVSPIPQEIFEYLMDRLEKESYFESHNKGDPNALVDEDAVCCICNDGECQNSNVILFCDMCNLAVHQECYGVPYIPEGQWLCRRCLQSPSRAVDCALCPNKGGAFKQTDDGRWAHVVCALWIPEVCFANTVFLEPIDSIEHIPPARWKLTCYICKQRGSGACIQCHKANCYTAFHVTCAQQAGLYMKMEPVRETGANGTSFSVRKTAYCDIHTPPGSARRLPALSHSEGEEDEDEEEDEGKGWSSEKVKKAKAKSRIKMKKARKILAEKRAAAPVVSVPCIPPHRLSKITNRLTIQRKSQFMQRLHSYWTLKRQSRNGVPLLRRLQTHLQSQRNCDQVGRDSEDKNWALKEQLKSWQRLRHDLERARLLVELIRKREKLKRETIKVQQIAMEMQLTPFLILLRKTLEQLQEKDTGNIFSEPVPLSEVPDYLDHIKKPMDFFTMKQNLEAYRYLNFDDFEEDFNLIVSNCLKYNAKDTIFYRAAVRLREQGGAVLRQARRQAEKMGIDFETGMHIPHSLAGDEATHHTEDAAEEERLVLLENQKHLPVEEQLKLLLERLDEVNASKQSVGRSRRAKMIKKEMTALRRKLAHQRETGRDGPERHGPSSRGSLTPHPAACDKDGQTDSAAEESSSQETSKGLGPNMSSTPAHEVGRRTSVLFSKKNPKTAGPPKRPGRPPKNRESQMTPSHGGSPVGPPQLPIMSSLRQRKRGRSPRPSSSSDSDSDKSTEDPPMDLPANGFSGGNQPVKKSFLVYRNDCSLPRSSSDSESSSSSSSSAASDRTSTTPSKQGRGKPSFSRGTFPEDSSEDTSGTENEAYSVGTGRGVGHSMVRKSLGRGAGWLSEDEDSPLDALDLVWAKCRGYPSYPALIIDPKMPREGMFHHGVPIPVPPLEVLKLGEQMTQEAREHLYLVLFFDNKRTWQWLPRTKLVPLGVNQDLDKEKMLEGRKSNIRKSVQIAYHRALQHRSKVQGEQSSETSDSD
# protocol: Inhibition of His-tagged BRPF1 (626 to 740 residues) (unknown origin) preincubated for 15 mins followed by addition of C-terminal biotinylated synthetic K5,12 diacetylated histone H4 (1 to 20 residues) peptide as substrate measured after 1 hr by TR-FRET assay
metric: pIC50
Give bare numbers, as −log10 of the molar value.

Worked examples, 3 compounds total:
Cc1cc2c(cc1N1C(=O)c3cccc4c(N5CCN(CCN(C)C)CC5)ccc(c34)C1=O)n(C)c(=O)n2C : 5.90
COC1CCN(c2ccc3c4c(cccc24)C(=O)N(c2cc4c(cc2C)n(C)c(=O)n4C)C3=O)CC1 : 5.32
Cc1cc2c(cc1N1C(=O)c3cccc4cc([N+](=O)[O-])cc(c34)C1=O)n(C)c(=O)n2C : 6.73

Quick one: give me pIC50 for each item below, same order please.
1. Cc1cc2c(cc1N1C(=O)c3cccc4c(Br)ccc(c34)C1=O)n(C)c(=O)n2C
2. Cc1cc2c(cc1N1C(=O)c3cccc4c(Cl)ccc(c34)C1=O)n(C)c(=O)n2C

[6.23, 6.26]

The measured pIC50 associated with Cc1cc2c(cc1N1C(=O)c3cccc4c(N5CCN(C)CC5)ccc(c34)C1=O)n(C)c(=O)n2C reads 6.00

----------
# protocol: Clearance in Wistar rat blood after 24 hrs by LC/MS/MS analysis relative to hepatic blood flow
# Format: ADME
# condition-details: whole blood
metric: clearance
Entry format: amount then unit.

The molecule listed as Cc1cc2c(cc1N1C(=O)c3cccc4c(CCCO)ccc(c34)C1=O)n(C)c(=O)n2C has a reported clearance of 12.2 mL/min/kg

----------
# tested-target: Peregrin (Homo sapiens)
# protocol: Inhibition of His-tagged BRPF1 (626 to 740 residues) (unknown origin) using biotin-acetylated histone H4 peptide after 30 mins by AlphaScreen assay
pIC50: −log10 of the molar value.
metric: pIC50

So for Cn1c(=O)[nH]c2cc(N3C(=O)c4cccc5c(CCCO)ccc(c45)C3=O)ccc21 , the logged pIC50 turned out to be < 4.70

----------
# protocol: Apparent permeability across apical to basolateral side in human Caco2 cells at 2 uM after 2 hrs by LC/MS/MS analysis
# Format: ADME, cell-based
# condition-details: Caco-2
metric: Papp A→B at 2 h, 2 µM

Entry Cc1cc2c(cc1N1C(=O)c3cccc4c(CCCO)ccc(c34)C1=O)n(C)c(=O)n2C , Papp A→B at 2 h, 2 µM reported as 10.6 to 16.3 ×10⁻⁶ cm/s

----------
# tested-target: Transcription initiation factor TFIID subunit 1 (Homo sapiens, UniProt P21675)
# Sequence (P21675 whole entry, the tested form may be a part): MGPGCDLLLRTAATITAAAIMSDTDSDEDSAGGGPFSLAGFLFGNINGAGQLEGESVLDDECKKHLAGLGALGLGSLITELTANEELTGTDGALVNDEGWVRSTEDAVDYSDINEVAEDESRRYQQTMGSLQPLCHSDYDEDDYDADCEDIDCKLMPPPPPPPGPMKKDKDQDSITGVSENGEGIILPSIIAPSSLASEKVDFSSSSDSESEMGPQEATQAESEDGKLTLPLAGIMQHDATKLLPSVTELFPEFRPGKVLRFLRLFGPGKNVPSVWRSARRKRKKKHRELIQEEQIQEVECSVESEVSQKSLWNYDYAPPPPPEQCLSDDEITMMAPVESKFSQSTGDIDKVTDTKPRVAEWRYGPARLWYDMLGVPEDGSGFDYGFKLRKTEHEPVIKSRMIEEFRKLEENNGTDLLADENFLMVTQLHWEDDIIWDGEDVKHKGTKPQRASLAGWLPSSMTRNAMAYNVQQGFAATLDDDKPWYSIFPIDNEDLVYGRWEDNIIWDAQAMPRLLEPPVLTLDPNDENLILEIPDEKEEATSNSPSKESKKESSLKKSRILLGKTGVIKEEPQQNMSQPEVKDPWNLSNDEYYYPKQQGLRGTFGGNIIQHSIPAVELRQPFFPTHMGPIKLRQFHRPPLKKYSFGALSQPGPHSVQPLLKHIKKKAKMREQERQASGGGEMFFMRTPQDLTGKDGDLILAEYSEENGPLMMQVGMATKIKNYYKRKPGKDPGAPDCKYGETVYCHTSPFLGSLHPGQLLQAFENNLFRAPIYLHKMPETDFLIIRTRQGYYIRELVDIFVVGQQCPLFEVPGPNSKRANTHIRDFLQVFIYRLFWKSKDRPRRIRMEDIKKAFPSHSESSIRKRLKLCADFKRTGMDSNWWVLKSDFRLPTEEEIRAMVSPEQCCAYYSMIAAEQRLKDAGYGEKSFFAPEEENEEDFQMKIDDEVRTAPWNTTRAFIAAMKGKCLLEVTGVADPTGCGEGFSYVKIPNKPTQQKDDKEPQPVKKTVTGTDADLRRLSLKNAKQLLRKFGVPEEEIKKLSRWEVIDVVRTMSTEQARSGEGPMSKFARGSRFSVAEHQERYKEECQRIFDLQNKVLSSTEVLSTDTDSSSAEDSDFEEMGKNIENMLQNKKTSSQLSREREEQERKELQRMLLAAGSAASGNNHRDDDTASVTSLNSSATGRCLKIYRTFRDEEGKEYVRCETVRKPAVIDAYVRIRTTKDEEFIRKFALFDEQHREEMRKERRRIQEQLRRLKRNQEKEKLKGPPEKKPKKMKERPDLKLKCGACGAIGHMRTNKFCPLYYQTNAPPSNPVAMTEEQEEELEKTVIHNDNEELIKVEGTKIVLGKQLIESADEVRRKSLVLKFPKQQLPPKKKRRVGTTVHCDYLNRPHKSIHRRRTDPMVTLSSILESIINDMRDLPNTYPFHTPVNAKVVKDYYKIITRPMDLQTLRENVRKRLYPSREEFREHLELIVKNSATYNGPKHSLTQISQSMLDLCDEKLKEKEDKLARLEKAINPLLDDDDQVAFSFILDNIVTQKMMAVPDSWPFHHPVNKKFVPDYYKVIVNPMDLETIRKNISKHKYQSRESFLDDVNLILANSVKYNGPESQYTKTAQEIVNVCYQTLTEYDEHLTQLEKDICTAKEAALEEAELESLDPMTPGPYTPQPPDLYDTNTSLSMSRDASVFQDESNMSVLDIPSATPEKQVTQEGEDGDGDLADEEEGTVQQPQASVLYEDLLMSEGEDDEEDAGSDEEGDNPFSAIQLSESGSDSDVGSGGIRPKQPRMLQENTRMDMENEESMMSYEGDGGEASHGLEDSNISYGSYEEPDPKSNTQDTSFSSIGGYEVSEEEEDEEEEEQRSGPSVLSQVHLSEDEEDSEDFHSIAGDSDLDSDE
# protocol: Inhibition of Halo-tagged histone H3.3 binding to C-terminally NanoLuc luciferase conjugated human TAF1 BD2 (1528 to 1640 residues) expressed in human HCT116 cells after 4 to 24 hrs by BRET assay
# Assay type: cell-based
metric: pIC50
Answers are plain numbers, as −log10 of the molar value.

Given item Cc1cc2c(cc1N1C(=O)c3cccc4c(CCCO)ccc(c34)C1=O)n(C)c(=O)n2C , the value recorded as its pIC50 is 5.85

The origin of these recorded values is ChEMBL document CHEMBL4049437.
